Molecular target: human α1H T-type channels (Homo sapiens)
Sequence (O95180 whole entry): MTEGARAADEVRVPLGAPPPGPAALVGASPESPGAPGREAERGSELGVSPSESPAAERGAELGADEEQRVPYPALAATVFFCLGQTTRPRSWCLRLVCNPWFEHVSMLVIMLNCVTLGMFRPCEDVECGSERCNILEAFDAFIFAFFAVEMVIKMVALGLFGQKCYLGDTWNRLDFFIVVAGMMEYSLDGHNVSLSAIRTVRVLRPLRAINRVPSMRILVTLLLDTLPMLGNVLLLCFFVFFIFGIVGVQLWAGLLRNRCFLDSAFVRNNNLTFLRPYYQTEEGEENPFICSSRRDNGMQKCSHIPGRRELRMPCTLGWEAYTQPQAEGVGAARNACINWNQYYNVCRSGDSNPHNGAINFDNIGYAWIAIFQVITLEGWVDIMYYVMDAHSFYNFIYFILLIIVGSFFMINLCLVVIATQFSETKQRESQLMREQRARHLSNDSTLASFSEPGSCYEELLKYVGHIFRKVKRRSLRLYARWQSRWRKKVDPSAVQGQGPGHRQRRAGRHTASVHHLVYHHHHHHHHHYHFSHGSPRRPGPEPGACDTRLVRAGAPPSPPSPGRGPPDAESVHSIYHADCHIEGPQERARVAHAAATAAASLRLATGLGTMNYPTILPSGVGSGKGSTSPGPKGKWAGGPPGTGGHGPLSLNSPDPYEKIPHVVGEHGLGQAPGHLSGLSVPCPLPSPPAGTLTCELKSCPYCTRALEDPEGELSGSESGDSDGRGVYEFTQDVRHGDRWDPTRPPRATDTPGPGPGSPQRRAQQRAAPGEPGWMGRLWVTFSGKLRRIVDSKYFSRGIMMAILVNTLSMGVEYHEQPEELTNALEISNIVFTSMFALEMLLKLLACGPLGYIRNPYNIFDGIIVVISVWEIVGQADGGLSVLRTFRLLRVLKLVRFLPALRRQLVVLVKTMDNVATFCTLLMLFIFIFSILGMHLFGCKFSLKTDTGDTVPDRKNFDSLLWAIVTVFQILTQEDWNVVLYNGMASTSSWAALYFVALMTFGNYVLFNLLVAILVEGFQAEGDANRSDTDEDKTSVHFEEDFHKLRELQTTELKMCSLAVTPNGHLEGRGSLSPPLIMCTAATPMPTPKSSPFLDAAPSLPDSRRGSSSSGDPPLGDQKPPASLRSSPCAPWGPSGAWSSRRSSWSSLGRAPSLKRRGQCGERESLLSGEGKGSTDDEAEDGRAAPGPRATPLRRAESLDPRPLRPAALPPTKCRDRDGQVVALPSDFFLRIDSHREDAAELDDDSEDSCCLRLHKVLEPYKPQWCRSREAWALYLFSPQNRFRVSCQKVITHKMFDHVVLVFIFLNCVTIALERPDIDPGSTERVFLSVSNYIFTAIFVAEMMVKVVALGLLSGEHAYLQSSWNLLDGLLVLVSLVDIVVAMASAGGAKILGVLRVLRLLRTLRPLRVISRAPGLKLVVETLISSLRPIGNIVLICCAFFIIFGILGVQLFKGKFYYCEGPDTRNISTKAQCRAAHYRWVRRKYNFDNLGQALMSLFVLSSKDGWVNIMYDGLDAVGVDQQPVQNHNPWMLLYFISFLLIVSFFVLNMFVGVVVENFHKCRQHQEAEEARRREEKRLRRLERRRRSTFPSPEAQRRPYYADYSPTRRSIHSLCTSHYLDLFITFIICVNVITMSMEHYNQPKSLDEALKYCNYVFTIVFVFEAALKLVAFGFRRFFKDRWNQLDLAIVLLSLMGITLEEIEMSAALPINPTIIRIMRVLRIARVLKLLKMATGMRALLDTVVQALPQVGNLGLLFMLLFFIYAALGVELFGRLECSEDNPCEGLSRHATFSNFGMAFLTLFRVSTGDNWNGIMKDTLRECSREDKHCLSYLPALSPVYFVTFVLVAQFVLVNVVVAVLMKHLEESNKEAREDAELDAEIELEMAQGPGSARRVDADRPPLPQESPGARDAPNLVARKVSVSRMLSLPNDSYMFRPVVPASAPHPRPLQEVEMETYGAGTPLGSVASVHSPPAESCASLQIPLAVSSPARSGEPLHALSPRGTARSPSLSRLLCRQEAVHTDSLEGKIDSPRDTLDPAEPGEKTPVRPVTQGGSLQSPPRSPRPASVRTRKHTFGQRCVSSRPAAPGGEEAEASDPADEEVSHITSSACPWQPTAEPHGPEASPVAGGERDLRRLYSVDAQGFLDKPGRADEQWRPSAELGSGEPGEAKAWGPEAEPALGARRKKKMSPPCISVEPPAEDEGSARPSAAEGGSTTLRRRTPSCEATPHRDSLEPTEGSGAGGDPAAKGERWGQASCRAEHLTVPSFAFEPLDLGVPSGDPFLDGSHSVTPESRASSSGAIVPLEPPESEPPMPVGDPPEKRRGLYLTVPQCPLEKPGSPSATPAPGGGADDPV
Assay: T-type calcium channel block, whole cell patch clamp, α1H
Settings: HEK cells stably expressing human α1H; mainly non-inactivated protocol; values above 10,000 nM represented as 10000
readout-kind: IC50 (nM)

smiles-code | readout-kind | unit-abbrev | numeric-result
Cn1cnc(S(=O)(=O)N[C@H]2CC[C@@](F)(S(=O)(=O)c3cccc(C(F)(F)F)c3)CC2)c1 | IC50 | nM | 850
CC(C)(CCNC(=O)c1cc(F)cc(Cl)c1)S(=O)(=O)c1cccc(C(F)(F)F)c1 | IC50 | nM | 960

[I] O=C(N[C@H]1C[C@H](CS(=O)(=O)c2cccc(C(F)(F)F)c2)C1)c1ccc(F)c(C(F)(F)F)c1
[II] CS(=O)(=O)c1cc(C(F)(F)F)cnc1C(=O)N[C@H]1CC[C@@](F)(S(=O)(=O)c2cccc(C(F)(F)F)c2)CC1
[III] CN(C(=O)c1ccc(C(F)(F)F)cc1S(C)(=O)=O)[C@H]1CC[C@@](F)(S(=O)(=O)c2cc(F)cc(C(F)(F)F)c2)CC1
[IV] O=C(NC[C@H]1C[C@@H](S(=O)(=O)c2cccc(C(F)(F)F)c2)C1)c1ccnc(C(F)(F)F)c1
Hello, I need these entries ordered by IC50, highest reading first. Thanks! The response must list the labels following the requested ordering.
II, I, III, IV
(II: 9620 nM, I: 1930 nM, III: 1350 nM, IV: 270 nM)
